assay: Acute oral toxicity (DL50, Lichtfield et al); design: species or system rats; conditions: rat, in vivo
metric: LD50 (mg/kg)
// note: answer is a bare numeric in mg/kg

Prompt: Using known records, supply LD50 for COc1ccccc1OCCOC(=O)c1ccccc1OC(C)=O
Completion: 2930
